Molecular target: T1, IL-1beta (UniProt P01584 117-269)
T1 construct: also called IL-1β
Experiment: Biacore
value kind: fold difference in affinity vs parental (fold)
Return type: number; implicit unit fold.

In the examples that follow, each entry is paired with its recorded fold difference in affinity vs parental.
- binder: "XPA23 Fab, heavy chain R59K (Fab, V domains shown) VH: EVQLLESGGGLVQPGGSLRLSCAASGFTFSKYFMFWVRQAPGKGLEWVSVISPSGGMTKYADSVKGRFTISRDNSKNTLYLQMNSLRAEDTAVYYCARVGYGGNSDYWGQGTLVTVSS VL: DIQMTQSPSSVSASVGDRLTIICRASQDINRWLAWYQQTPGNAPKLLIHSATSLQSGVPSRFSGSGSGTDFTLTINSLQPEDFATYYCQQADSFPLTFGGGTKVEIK"
  fold difference in affinity vs parental [fold]: 0.94
- binder: "XPA23 Fab, heavy chain Y32D (Fab, V domains shown) VH: EVQLLESGGGLVQPGGSLRLSCAASGFTFSKDFMFWVRQAPGKGLEWVSVISPSGGMTRYADSVKGRFTISRDNSKNTLYLQMNSLRAEDTAVYYCARVGYGGNSDYWGQGTLVTVSS VL: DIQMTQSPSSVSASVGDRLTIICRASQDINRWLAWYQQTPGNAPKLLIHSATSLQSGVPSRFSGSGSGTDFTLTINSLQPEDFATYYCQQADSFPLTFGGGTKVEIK"
  fold difference in affinity vs parental [fold]: 0.68

What does the record list as fold difference in affinity vs parental for XPA23 Fab, heavy chain G55E (Fab, V domains shown) VH: EVQLLESGGGLVQPGGSLRLSCAASGFTFSKYFMFWVRQAPGKGLEWVSVISPSEGMTRYADSVKGRFTISRDNSKNTLYLQMNSLRAEDTAVYYCARVGYGGNSDYWGQGTLVTVSS VL: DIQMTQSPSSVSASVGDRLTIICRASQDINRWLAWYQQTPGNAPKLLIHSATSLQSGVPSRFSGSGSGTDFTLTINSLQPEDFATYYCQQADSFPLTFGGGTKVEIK ?
0.11

Request the reported fold difference in affinity vs parental associated with XPA23 Fab, heavy chain F33N (Fab, V domains shown) VH: EVQLLESGGGLVQPGGSLRLSCAASGFTFSKYNMFWVRQAPGKGLEWVSVISPSGGMTRYADSVKGRFTISRDNSKNTLYLQMNSLRAEDTAVYYCARVGYGGNSDYWGQGTLVTVSS VL: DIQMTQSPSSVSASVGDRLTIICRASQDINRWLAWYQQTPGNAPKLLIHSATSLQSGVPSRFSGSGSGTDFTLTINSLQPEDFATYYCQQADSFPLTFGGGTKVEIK
0.97

Item under review: XPA23 Fab, heavy chain I51N (Fab, V domains shown) VH: EVQLLESGGGLVQPGGSLRLSCAASGFTFSKYFMFWVRQAPGKGLEWVSVNSPSGGMTRYADSVKGRFTISRDNSKNTLYLQMNSLRAEDTAVYYCARVGYGGNSDYWGQGTLVTVSS VL: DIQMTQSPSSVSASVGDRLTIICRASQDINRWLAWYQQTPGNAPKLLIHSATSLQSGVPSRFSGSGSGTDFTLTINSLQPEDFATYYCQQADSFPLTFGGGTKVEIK . Reported fold difference in affinity vs parental?
0.68
